Where a SMILES comes first, the peptide text is derived from it. [ ]: non-standard residue; d: D form. 2Nal = N[C@@H](Cc1ccc2ccccc2c1)C(=O)O
log10 Ki data for Melanocyte-stimulating hormone receptor (Homo sapiens, UniProt Q01726) follow.
METRIC: log10 Ki (log10 of the value in nM)

>  <COMPOUND>
CNC(=O)[C@H](Cc1ccc2ccccc2c1)NC(=O)[C@H](CCCN=C(N)N)NC(=O)[C@@H](Cc1ccccc1)NC(=O)[C@H](Cc1ccc(O)cc1)NC(C)=O (Ac-Y[dF]R[2Nal]-NHMe)

>  <TARGET_DESC>
Melanocyte-stimulating hormone receptor (Homo sapiens, UniProt Q01726)
Sequence (Q01726 whole entry): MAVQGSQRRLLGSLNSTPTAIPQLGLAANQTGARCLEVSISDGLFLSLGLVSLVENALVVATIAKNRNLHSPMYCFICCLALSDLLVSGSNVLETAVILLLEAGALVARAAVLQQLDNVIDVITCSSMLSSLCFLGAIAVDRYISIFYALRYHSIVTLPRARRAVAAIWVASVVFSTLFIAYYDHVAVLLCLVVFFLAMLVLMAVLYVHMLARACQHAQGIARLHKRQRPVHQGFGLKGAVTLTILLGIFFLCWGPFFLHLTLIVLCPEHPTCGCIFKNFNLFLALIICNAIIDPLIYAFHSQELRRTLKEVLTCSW

>  <TEST_VALUE>
3.66

$$$$
>  <COMPOUND>
CNC(=O)[C@H](Cc1ccc2ccccc2c1)NC(=O)[C@H](CCCN=C(N)N)NC(=O)[C@@H](Cc1ccccc1)NC(=O)[C@@H]1Cc2ccccc2CN1

>  <TARGET_DESC>
Melanocyte-stimulating hormone receptor (Homo sapiens, UniProt Q01726)

>  <TEST_VALUE>
3.36

$$$$
>  <COMPOUND>
N=C(N)NCCC[C@H]1C[C@@H](OCc2ccccc2)CN1C(=O)[C@H](CC[C@H]1Cc2ccccc2CN1)Cc1ccccc1

>  <TARGET_DESC>
Melanocyte-stimulating hormone receptor (Homo sapiens, UniProt Q01726)

>  <TEST_VALUE>
1.85

$$$$
>  <COMPOUND>
CNC(=O)[C@H](Cc1ccc2ccccc2c1)NC(=O)[C@H](CCCN=C(N)N)NC(=O)[C@H](CC[C@H](Cc1ccccc1)NC(C)=O)Cc1ccc(F)cc1

>  <TARGET_DESC>
Melanocyte-stimulating hormone receptor (Homo sapiens, UniProt Q01726)

>  <TEST_VALUE>
4.37

$$$$
>  <COMPOUND>
N=C(N)NCCC[C@H]1C[C@@H](OCc2ccccc2)CN1C(=O)[C@@H](Cc1ccccc1)NC(=O)C1Cc2ccccc2CN1 (single isomer, unassigned)

>  <TARGET_DESC>
Melanocyte-stimulating hormone receptor (Homo sapiens, UniProt Q01726)

>  <TEST_VALUE>
1.48

$$$$
